Test: modulators of brain endothelial barrier permeability, primary screen, cell-based, FITC-avidin fluorescence, HTS (AID 1963498); note: test concentration not given here
Conditions: actives lie on both sides
fold change permeability listing for selected molecules.
Form rule: numeric answer, no unit written next to it.

Completed entries (count: 6):
# molecule, fold change permeability
data = [
    ("CN[C@@H]1Cc2cccc3[nH]c(=O)n(c23)C1", 0.8),
    ("C=CCN1C[C@H](C)N([C@H](c2ccc(C(=O)N(CC)CC)cc2)c2cccc(OC)c2)C[C@H]1C", 0.7),
    ("c1ccc2c(c1)OCC(C1=NCCN1)O2 (stereo not drawn)", 2.1),
    ("NCCCP(=O)(O)O", 1.3),
    ("CN1C(=O)CCS(=O)(=O)C1c1ccc(Cl)cc1 (stereo not drawn)", 1.3),
    ("c1ccc(C2CC2)c(OCC2=NCCN2)c1", 1),
]

Look up fold change permeability: C[C@@H](N)Cc1cnc[nH]1
0.9

Also check Clc1cnc(Oc2ccc(Oc3ncc(Cl)cc3Cl)cc2)c(Cl)c1
1.4

Also check CN1CCC(c2c[nH]c3ccc(O)cc23)CC1
1

Also check CC(=O)NBr
1

Also check CO[C@H]1CC[C@@H](O[C@H]2C[C@H]([C@]3(C)CC[C@]4(C[C@H](O)[C@@H](C)[C@@H]([C@@H](C)/C=C(\C)C(=O)[C@H](C)C[C@H](C)C(=O)O)O4)O3)O[C@]3(O[C@@H]([C@H]4O[C@@](O)(CO)[C@H](C)C[C@@H]4C)C[C@@H]3C)[C@@H]2C)O[C@@H]1C
1.3

Also check CC(N)c1cccc(Cl)c1Cl (stereo not drawn)
1.1

Also check O=P(O)(O)C(O)(Cc1cnc2ccccn12)P(=O)(O)O
0.8

Also check COC[C@H]1OC(=O)c2coc3c2[C@@]1(C)C1=C(C3=O)C2CCC(=O)[C@@]2(C)C[C@H]1OC(C)=O (stereo partly drawn)
1.7

Also check O=C1C=CC(=O)C=C1
1

Also check CCCN1CCC[C@@H](c2cccc(O)c2)C1
1

Also check COc1ccc2c(c1OC)C(=O)O[C@H]2[C@@H]1c2cc3c(cc2CCN1C)OCO3
1.2

Also check O=C(O)c1nn(Cc2ccc(Cl)cc2Cl)c2ccccc12
1.9

Also check COc1cc([C@@H]2c3cc4c(cc3[C@H](O)[C@H]3COC(=O)[C@H]23)OCO4)cc(OC)c1OC
1.2

Also check CCCC[N+]1(C)C2CC(OC(=O)[C@H](CO)c3ccccc3)CC1C1OC12 (stereo partly drawn)
0.8

Also check COC(=O)C1=CCCN(C)C1
1.2

Also check CCN1CCN(C(=O)Cc2ccc(Nc3ncc(F)c(Nc4ccc(C(=O)Nc5ccccc5Cl)cc4)n3)cc2)CC1
1.1
